- Tested on: MCF7 breast cancer cell line
- protocol.summary: Cell metabolic activity / viability (MTT assay) on MCF7;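 further: MTT optical density read-out in human MCF7 cells, normalised to DMSO vehicle-treated cells as 100%, with IC50 derived from fitted concentration–response curves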
- Assay type: cell-based, human
- details: MCF7, 100 µM, 24 h
experimental.endpoint: Viability (% of control) - 24 h

Example compounds with recorded Viability (% of control) - 24 h:
Reported Viability (% of control) - 24 h of O=S(=O)(Cc1ccccc1)Oc1ccc(/C=C/c2ccccc2)cc1 [1j] : 74.91 ± 9.24 % of control

Reported Viability (% of control) - 24 h of Oc1ccc(/C=C/c2cc(O)cc(O)c2)cc1 [RSV, trans-3,4′,5-trihydroxystilbene, reference compound] : 78.29 ± 4.03 % of control

Reported Viability (% of control) - 24 h of O=[N+]([O-])c1cccc(S(=O)(=O)Oc2ccc(/C=C/c3ccccc3)cc2)c1 [1b] : 73.93 ± 1.87 % of control

---
Reported Viability (% of control) - 24 h of Cc1ccc(S(=O)(=O)Oc2ccc(/C=C/c3ccccc3)cc2)cc1[N+](=O)[O-] [1c] : 36.17 ± 1.56 % of control
